- Test system: Pseudomonas aeruginosa
- protocol description: Antimicrobial activity against Pseudomonas aeruginosa ATCC 25619 incubated at 35 degC for 20 hrs by microdilution broth method
- Type: functional
- condition context: ATCC 25619, 20 h
reported endpoint: MIC (µg/mL)

(a) C[C@H](N)C(=O)N(C)[C@@H](C)[C@H](NC(=O)[C@H](C)NC(=O)N[C@@H](Cc1c[nH]c2ccccc12)C(=O)O)C(=O)N/C=C1/C[C@@H](O)[C@H](n2ccc(=O)[nH]c2=O)O1
(b) C[C@H](NC(=O)N[C@@H](Cc1c[nH]c2ccccc12)C(=O)O)C(=O)N[C@H](C(=O)N/C=C1\O[C@@H](n2ccc(=O)[nH]c2=O)[C@H](O)[C@@H]1O)[C@H](C)N(C)C(=O)[C@H](Cc1cccc(O)c1)NC(=O)CN
Please compare: a and b . Report which one has the smaller MIC value. Identify your selection by its label.
a

---

- Test system: Pseudomonas aeruginosa
- protocol description: Antimicrobial activity against Pseudomonas aeruginosa SR 27156 incubated at 35 degC for 20 hrs by microdilution broth method
- Format: functional
- condition context: SR 27156, 20 h
reported endpoint: MIC

Some entries whose results are on file:
C[C@H](NC(=O)N[C@@H](Cc1c[nH]c2ccccc12)C(=O)O)C(=O)N[C@H](C(=O)N/C=C1\O[C@@H](n2ccc(=O)[nH]c2=O)[C@H](O)[C@@H]1O)[C@H](C)N(C)C(=O)[C@H](Cc1cccc(O)c1)NC(=O)CN    16 µg/mL
C[C@H](N)C(=O)N(C)[C@@H](C)[C@@H](NC(=O)[C@H](C)NC(=O)N[C@@H](Cc1c[nH]c2ccccc12)C(=O)O)C(=O)N/C=C1\O[C@@H](n2ccc(=O)[nH]c2=O)[C@H](O)[C@@H]1O    > 32 µg/mL
C[C@H](NC(=O)N[C@@H](Cc1c[nH]c2ccccc12)C(=O)O)C(=O)N[C@@H](C(=O)N/C=C1\O[C@@H](n2ccc(=O)[nH]c2=O)[C@H](O)[C@@H]1O)[C@H](C)N(C)C(=O)[C@@H](Cc1cccc(O)c1)NC(=O)CN    > 32 µg/mL
C[C@H](N)C(=O)N(C)[C@@H](C)[C@H](NC(=O)[C@H](C)NC(=O)N[C@@H](Cc1c[nH]c2ccccc12)C(=O)O)C(=O)N/C=C1\O[C@@H](n2ccc(=O)[nH]c2=O)[C@H](O)[C@@H]1O    16 µg/mL
C[C@H](N)C(=O)N(C)[C@@H](C)[C@H](NC(=O)[C@H](C)NC(=O)N[C@@H](Cc1c[nH]c2ccccc12)C(=O)O)C(=O)N/C=C1/C[C@@H](O)[C@H](n2ccc(=O)[nH]c2=O)O1    16 µg/mL

Fill in: MIC of C[C@H](NC(=O)N[C@@H](Cc1c[nH]c2ccccc12)C(=O)O)C(=O)N[C@@H](C(=O)N/C=C1\O[C@@H](n2ccc(=O)[nH]c2=O)[C@H](O)[C@@H]1O)[C@H](C)N(C)C(=O)[C@H](Cc1cccc(O)c1)NC(=O)CN is ___
> 32 µg/mL

Fill in: MIC of C[C@H](NC(=O)N[C@@H](Cc1c[nH]c2ccccc12)C(=O)O)C(=O)N[C@H](C(=O)N/C=C1\O[C@@H](n2ccc(=O)[nH]c2=O)[C@H](O)[C@@H]1O)[C@H](C)N(C)C(=O)CN is ___
> 32 µg/mL

Fill in: MIC of C[C@H](NC(=O)N[C@@H](Cc1c[nH]c2ccccc12)C(=O)O)C(=O)N[C@H](C(=O)N/C=C1\O[C@@H](n2ccc(=O)[nH]c2=O)[C@H](O)[C@@H]1O)[C@H](C)N(C)C(=O)[C@H](Cc1ccc(O)cc1)NC(=O)CN is ___
> 32 µg/mL

---

- measurement target: Phospho-N-acetylmuramoyl-pentapeptide-transferase (Staphylococcus aureus, UniProt P0C1R8)
reported endpoint: IC50 (nM)

C[C@H](NC(=O)N[C@@H](Cc1c[nH]c2ccccc12)C(=O)O)C(=O)N[C@H](C(=O)N/C=C1\O[C@@H](n2ccc(=O)[nH]c2=O)[C@H](O)[C@@H]1O)[C@H](C)N(C)C(=O)[C@H](Cc1ccc(O)cc1)NC(=O)CN    4000

(A) C[C@H](NC(=O)N[C@@H](Cc1c[nH]c2ccccc12)C(=O)O)C(=O)N[C@H](C(=O)N/C=C1\O[C@@H](n2ccc(=O)[nH]c2=O)[C@H](O)[C@@H]1O)[C@H](C)N(C)C(=O)CN
(B) C[C@H](N)C(=O)N(C)[C@@H](C)[C@@H](NC(=O)[C@H](C)NC(=O)N[C@@H](Cc1c[nH]c2ccccc12)C(=O)O)C(=O)N/C=C1\O[C@@H](n2ccc(=O)[nH]c2=O)[C@H](O)[C@@H]1O
(C) C[C@H](N)C(=O)N(C)[C@@H](C)[C@H](NC(=O)[C@H](C)NC(=O)N[C@@H](Cc1c[nH]c2ccccc12)C(=O)O)C(=O)N/C=C1\O[C@@H](n2ccc(=O)[nH]c2=O)[C@H](O)[C@@H]1O
(D) C[C@H](NC(=O)N[C@@H](Cc1c[nH]c2ccccc12)C(=O)O)C(=O)N[C@@H](C(=O)N/C=C1\O[C@@H](n2ccc(=O)[nH]c2=O)[C@H](O)[C@@H]1O)[C@H](C)N(C)C(=O)[C@H](Cc1cccc(O)c1)NC(=O)CN
(E) C[C@H](NC(=O)N[C@@H](Cc1c[nH]c2ccccc12)C(=O)O)C(=O)N[C@H](C(=O)N/C=C1\O[C@@H](n2ccc(=O)[nH]c2=O)[C@H](O)[C@@H]1O)[C@H](C)N(C)C(=O)[C@H](Cc1cccc(O)c1)NC(=O)CN
Sort (5 compounds) by IC50: min first. API: response body holds the labels in the requested order.
E, C, A, D, B
(E: 22 nM, C: 42 nM, A: 65 nM, D: 650 nM, B: 4000 nM)

---

Catalogue of MIC values
- Test system: Pseudomonas aeruginosa
- protocol description: Antimicrobial activity against Pseudomonas aeruginosa ATCC 25619 incubated at 35 degC for 20 hrs by microdilution broth method
- Assay type: functional
- condition context: ATCC 25619, 20 h

Some entries whose results are on file:
C[C@H](NC(=O)N[C@@H](Cc1c[nH]c2ccccc12)C(=O)O)C(=O)N[C@H](C(=O)N/C=C1\O[C@@H](n2ccc(=O)[nH]c2=O)[C@H](O)[C@@H]1O)[C@H](C)N(C)C(=O)[C@H](Cc1ccc(O)cc1)NC(=O)CN    > 32 µg/mL
C[C@H](N)C(=O)N(C)[C@@H](C)[C@H](NC(=O)[C@H](C)NC(=O)N[C@@H](Cc1c[nH]c2ccccc12)C(=O)O)C(=O)N/C=C1\O[C@@H](n2ccc(=O)[nH]c2=O)[C@H](O)[C@@H]1O    16 µg/mL

Here is another molecule to look at.
State its MIC on Pseudomonas aeruginosa: C[C@H](NC(=O)N[C@@H](Cc1c[nH]c2ccccc12)C(=O)O)C(=O)N[C@@H](C(=O)N/C=C1\O[C@@H](n2ccc(=O)[nH]c2=O)[C@H](O)[C@@H]1O)[C@H](C)N(C)C(=O)[C@@H](Cc1cccc(O)c1)NC(=O)CN
> 32 µg/mL

---

- Tested on: Pseudomonas aeruginosa
- protocol description: Antimicrobial activity against Pseudomonas aeruginosa ATCC 25619 incubated at 35 degC for 20 hrs by microdilution broth method
- Type: functional
- condition context: ATCC 25619, 20 h
Catalogue of MIC values

Some entries whose results are on file:
C[C@H](NC(=O)N[C@@H](Cc1c[nH]c2ccccc12)C(=O)O)C(=O)N[C@@H](C(=O)N/C=C1\O[C@@H](n2ccc(=O)[nH]c2=O)[C@H](O)[C@@H]1O)[C@H](C)N(C)C(=O)[C@H](Cc1cccc(O)c1)NC(=O)CN    > 32 µg/mL
C[C@H](N)C(=O)N(C)[C@@H](C)[C@@H](NC(=O)[C@H](C)NC(=O)N[C@@H](Cc1c[nH]c2ccccc12)C(=O)O)C(=O)N/C=C1\O[C@@H](n2ccc(=O)[nH]c2=O)[C@H](O)[C@@H]1O    > 32 µg/mL

Here is another compound to look at.
Fill in: MIC of C[C@H](NC(=O)N[C@@H](Cc1c[nH]c2ccccc12)C(=O)O)C(=O)N[C@H](C(=O)N/C=C1\O[C@@H](n2ccc(=O)[nH]c2=O)[C@H](O)[C@@H]1O)[C@H](C)N(C)C(=O)CN is ___
> 32 µg/mL
